# measured on: T1, human Trop2 on cells (human, UniProt P09758 27-323)
# T1 construct: whole, on cells; also called hTrop2; 293T-human Trop2 cells
# T1 sequence (looked up): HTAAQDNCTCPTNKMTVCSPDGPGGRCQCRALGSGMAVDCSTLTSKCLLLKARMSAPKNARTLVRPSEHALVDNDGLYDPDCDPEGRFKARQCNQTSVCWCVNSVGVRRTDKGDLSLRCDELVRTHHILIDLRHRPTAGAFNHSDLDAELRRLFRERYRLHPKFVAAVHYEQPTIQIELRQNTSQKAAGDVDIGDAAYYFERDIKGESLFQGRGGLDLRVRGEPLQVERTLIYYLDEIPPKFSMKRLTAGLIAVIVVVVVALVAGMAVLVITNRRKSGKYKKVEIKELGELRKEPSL
# protocol description: flow cytometry on 293T-human Trop2 cells
// reported Maximum (MFI) per item
test readout: Maximum (MFI)

| binder | test readout | result |
| --- | --- | --- |
| PR001150 (antibody, human IgG1, kappa, V domains shown, fully human IgG1/kappa; also called antibody No. (13)) VH: QVQLVESGGGVVQPEKSLRLSCAASGFTFSHYGMHWVRQVPGKGLEWVAVIWYDGIKRYYVESVKGRFTISRDNSKNTLYLQMNRLRAEDTAVYYCARDGGFGESNYYGLDVWGQGTTVTVSS VL: DIQLTQSPSFLSASVGDRVTITCRASQGINSYLGWYQRKPGKAPKLLIYIASTLQSGVPSRFSGSGSGTEFTLTISSLQPEDFATYYCQQLNSYPYTFGQGTKLEIKR | Maximum (MFI) | 6570 MFI |
| PR001138 (antibody, human IgG1, kappa, V domains shown, fully human IgG1/kappa; also called antibody No. (7)) VH: QVQLQESGPRLVKPSETLSLTCAVSGYSISSGYYWGWIRQSPGMGLEWIAYIYHDGSTYCNPSLKSRVTMSVDTSKNQFSLKLRSVTAADTAVYYCARDGAAAPFDYWGQGTLVTVSS VL: DIQMTQSPSTLSASVGDRVTITCRASQSISNWLAWYQQKPGKAPKVLIYKASSLESGVPSRFSGSGSGTEFTLTINSLQPDDFATYYCQQYDSYSITFGQGTRLEIKR | Maximum (MFI) | 6730 MFI |
